- Run Description: Tmax in Sprague-Dawley rat plasma at 10 mg/kg, po after 24 hrs
- Assay type: ADME, organism-based
Test Readout: Tmax (min)
Write the answer as a number in min, unit excluded.

Query (molecule): `C=CC(=O)N1CCC[C@@H](n2nc(-c3ccc(OCc4ccccn4)c(Cl)c3)c3c(N)ncnc32)C1` ; field requested: Tmax
34.8

====

- Run Description: Oral bioavailability in Sprague-Dawley rat at 10 mg/kg after 24 hrs
- Format: ADME, organism-based
- Cond: in vivo
Test Readout: bioavailability

Query (compound): `C=CC(=O)N1CCC[C@@H](n2nc(-c3ccc(OCc4ccccn4)c(Cl)c3)c3c(N)ncnc32)C1` ; field requested: bioavailability
10.3%
